# Test system: Mycobacterium smegmatis
# TEST DESCRIPTION: M. smegmatis growth inhibition assay
# Format: cell-based
# COND: 48 hours
Binary classification by Ms ED50, with 90 µg/mL as an inclusive lower bound for criterion met; all other cases are criterion not met.

Some solved cases for reference:
CC(C)CCCC(C)CCCC(C)CCCC(C)CCOc1ccc[n+](CC(P(=O)([O-])O)P(=O)(O)O)c1 (stereo not shown) ... criterion met
O=P(O)(O)C(CNc1nccs1)P(=O)(O)O ... criterion met

(Q) Check this compound for Ms ED50 at or above 90 µg/mL: CC(C)CCCC(C)CCSc1ccc[n+](CC(P(=O)([O-])O)P(=O)(O)O)c1 (stereo not shown)
(A) criterion not met

(Q) Now consider CC(C)CCCC(C)CCCc1cc[n+](CC(P(=O)([O-])O)P(=O)(O)O)cc1 (stereo not shown) and answer again.
(A) criterion not met

(Q) Now consider CC(C)CCCC(C)CCn1cc[n+](CC(P(=O)([O-])O)P(=O)(O)O)c1 (stereo not shown) and answer again.
(A) criterion not met

(Q) Now consider CC(C)CCCC(C)CCCn1cc[n+](CC(P(=O)([O-])O)P(=O)(O)O)c1 (stereo not shown) and answer again.
(A) criterion not met
